molecular target: HLA-B*15:42; assay: IEDB peptide-MHC binding, purified MHC/competitive/fluorescence; filed as Kd, often an IC50 or EC50 that approximates it; bounds were set here for any values at or beyond the usual limits of such assays; settings: source organism: Mycobacterium tuberculosis H37Rv
pKd: −log10 of the molar value.

Chain | pKd
SPAAYVLPL | ≤ 5.30

---

molecular target: HLA-B*18:01; test: IEDB peptide-MHC binding, purified MHC/competitive/fluorescence; filed as Kd, often an IC50 or EC50 that approximates it; bounds were set here for any values at or beyond the usual limits of such assays; settings: source organism: Kurkino virus

Chain | Kd
RRAYSGKQY | ≥ 20 µM
